Molecular target: LRRK2 phospho-Ser935 (Homo sapiens, UniProt Q5S007)
Construct: expressed in transfected cells
Sequence (Q5S007 whole entry): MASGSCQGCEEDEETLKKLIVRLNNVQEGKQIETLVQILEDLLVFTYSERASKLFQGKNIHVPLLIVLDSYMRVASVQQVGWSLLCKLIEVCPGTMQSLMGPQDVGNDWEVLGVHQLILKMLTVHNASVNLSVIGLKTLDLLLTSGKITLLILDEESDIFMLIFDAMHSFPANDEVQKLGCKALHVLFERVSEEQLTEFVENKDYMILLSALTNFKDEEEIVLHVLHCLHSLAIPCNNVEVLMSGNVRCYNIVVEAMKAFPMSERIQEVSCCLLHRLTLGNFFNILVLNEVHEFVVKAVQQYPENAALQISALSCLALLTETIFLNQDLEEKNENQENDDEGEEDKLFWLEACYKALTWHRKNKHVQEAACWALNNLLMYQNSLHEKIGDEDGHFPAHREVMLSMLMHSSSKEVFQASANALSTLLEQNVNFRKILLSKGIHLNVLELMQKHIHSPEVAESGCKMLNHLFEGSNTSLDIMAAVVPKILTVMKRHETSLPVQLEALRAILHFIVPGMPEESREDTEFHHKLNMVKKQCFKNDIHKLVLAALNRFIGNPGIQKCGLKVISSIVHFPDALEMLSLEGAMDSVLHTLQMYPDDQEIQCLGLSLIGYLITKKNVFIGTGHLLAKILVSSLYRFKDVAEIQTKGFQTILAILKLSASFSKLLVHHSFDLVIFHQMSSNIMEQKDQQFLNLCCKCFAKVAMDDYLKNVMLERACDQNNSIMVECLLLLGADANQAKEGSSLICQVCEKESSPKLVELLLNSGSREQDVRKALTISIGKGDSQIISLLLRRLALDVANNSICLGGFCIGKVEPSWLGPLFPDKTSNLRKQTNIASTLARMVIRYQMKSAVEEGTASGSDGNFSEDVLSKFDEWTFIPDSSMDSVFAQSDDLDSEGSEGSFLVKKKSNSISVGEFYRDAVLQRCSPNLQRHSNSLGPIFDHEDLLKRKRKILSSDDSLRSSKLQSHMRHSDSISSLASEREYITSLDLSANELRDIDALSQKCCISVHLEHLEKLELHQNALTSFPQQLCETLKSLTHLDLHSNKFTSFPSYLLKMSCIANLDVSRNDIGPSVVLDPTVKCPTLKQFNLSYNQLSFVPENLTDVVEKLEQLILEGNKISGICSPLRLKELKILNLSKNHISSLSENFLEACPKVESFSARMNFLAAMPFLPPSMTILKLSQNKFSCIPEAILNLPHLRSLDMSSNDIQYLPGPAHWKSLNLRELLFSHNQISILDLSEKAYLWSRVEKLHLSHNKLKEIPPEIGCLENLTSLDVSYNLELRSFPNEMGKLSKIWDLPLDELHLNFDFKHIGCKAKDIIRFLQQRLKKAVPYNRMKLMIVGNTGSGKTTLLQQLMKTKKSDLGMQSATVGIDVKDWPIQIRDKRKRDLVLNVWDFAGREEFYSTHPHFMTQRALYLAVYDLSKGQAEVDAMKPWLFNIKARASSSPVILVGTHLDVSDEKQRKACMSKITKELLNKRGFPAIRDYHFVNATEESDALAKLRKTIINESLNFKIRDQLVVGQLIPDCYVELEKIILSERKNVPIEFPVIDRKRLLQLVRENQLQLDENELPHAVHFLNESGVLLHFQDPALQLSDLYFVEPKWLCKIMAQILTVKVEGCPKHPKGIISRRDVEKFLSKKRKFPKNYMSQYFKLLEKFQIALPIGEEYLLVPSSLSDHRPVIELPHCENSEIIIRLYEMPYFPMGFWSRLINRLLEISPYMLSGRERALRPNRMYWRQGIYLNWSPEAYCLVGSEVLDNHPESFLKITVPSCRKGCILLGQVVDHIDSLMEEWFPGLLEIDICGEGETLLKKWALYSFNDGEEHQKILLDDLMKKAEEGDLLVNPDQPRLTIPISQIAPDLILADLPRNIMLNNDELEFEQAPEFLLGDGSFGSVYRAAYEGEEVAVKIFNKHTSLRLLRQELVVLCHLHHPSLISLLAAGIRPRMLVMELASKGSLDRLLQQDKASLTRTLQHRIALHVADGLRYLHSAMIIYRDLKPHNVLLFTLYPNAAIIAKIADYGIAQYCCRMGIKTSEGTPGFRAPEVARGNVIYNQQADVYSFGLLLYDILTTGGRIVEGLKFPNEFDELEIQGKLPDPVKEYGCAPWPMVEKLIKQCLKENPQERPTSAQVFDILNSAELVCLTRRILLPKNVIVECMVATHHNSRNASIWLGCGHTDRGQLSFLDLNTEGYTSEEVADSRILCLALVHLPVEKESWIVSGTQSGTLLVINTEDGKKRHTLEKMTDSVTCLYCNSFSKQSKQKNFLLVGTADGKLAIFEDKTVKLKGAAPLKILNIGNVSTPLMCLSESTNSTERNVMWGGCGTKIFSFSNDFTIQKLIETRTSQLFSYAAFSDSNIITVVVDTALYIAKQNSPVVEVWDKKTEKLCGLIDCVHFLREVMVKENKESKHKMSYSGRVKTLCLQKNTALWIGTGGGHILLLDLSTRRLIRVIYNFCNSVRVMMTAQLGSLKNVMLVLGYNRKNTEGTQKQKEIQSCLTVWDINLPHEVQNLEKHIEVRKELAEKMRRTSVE
Assay: Cellular LRRK2 phosphoserine 935 dephosphorylation spotblot assay in SH-SY5Y cells stably expressing 3xFlag-LRRK2
Assay type: cell-based
Conditions: pS935 level as % of control, 5 μM for 2 h, SH-SY5Y cells with stable expression of LRRK2
Let's look at some compounds and their measured Cellular pS935 (% @ 5 μM).
Recorded endpoint: Cellular pS935 (% @ 5 μM)

INSERT INTO results (compound, measurement) VALUES
  ('CC(=O)O/N=C1/C(=C2/C(=O)Nc3cc(Br)ccc32)Nc2ccccc21', '106.06%'),
  ('Nc1ccc2ncnc(NCCc3ccc(Oc4ccccc4)cc3)c2c1', '65.67%'),
  ('CN(C)c1ccc(/C=C2\C(=O)Nc3ccccc32)cc1', '54.34%'),
  ('O=C1Nc2ccccc2/C1=C\c1c(Cl)[nH]c2ccccc12', '78.35%'),
  ('COc1cc(OC)c(C=C2C(O)=Nc3ccccc32)c(OC)c1', '78.81%'),
  ('CC(C)n1cnc2c(Nc3cccc(Cl)c3)nc(NCCO)nc21', '76.44%'),
  ('O=C1Nc2ccccc2/C1=C1/Nc2ccccc2/C1=N\OCC(O)CO (stereo not drawn)', '101.13%'),
  ('O=C1Nc2ccccc2/C1=C1/Nc2ccccc2/C1=N\O', '85.53%'),
  ('CCC(=O)Nc1ccc2ncnc(Nc3cccc(Br)c3)c2c1', '67.74%'),
  ('CCN(CC)CCNC(=O)c1c(C)[nH]c(/C=C2\C(=O)Nc3ccc(Cl)cc32)c1C', '14.19%'),
  ('COc1ccc(CNc2nc(N(CCO)CCO)nc3c2ncn3C(C)C)cc1', '100.49%'),
  ('CCn1cnc2c(Nc3cccc(Cl)c3)nc(N[C@H]3CCCC[C@H]3N)nc21 [Cdk1 inhibitor. CGP74514A]', '83.35%'),
  ('CC(C)[C@H](CO)Nc1nc(Nc2cccc(Cl)c2)c2ncn(C(C)C)c2n1', '121.26%'),
  ('COc1cc2ncnc(Nc3cccc(Cl)c3)c2cc1OC', '75.11%'),
  ('O=C1Nc2ccc3ncsc3c2/C1=C/c1cnc[nH]1', '29%'),
  ('COc1cc2ncnc(Nc3ccc(O)c(Br)c3)c2cc1OC', '63.02%'),
  ('CN(C)S(=O)(=O)c1ccc2c(c1)/C(=C/c1cc3c([nH]1)CCCC3)C(=O)N2', '14.34%'),
  ('O=C1Nc2ccc(Br)cc2/C1=C/c1cc2c([nH]1)CCCC2', '37.26%');

---

Let's look at some molecules and their measured pIC50.
Molecular target: full length LRRK2 protein (Homo sapiens)
Construct: compounds were tested in triplicate with full length LRRK2 protein; made in house
Sequence (Q5S007 whole entry): as above
Assay: In vitro LRRKtide kinase assay with full length recombinant LRRK2, dose-response (IC50/pIC50)
Format: biochemical
Conditions: LRRKtide phosphorylation, dose-response; read-out: IC50 in vitro (lrrktide)
pIC50: −log10 of the molar value.
Recorded endpoint: pIC50

INSERT INTO results (molecule, value_prefix, measurement) VALUES
  ('Cc1[nH]c(/C=C2\C(=O)Nc3ccc(S(=O)(=O)N(C)c4cccc(Cl)c4)cc32)c(C)c1C(=O)N1CCN(C)CC1', '=', 7.37),
  ('Nc1nc(Nc2ccc(S(N)(=O)=O)cc2)nn1C(=S)Nc1c(F)cccc1F', '=', 9.04),
  ('COc1cc2ncnc(Nc3cccc(Cl)c3)c2cc1OC', '=', 5.43),
  ('COc1cc2ncnc(Nc3ccc(O)c(Br)c3)c2cc1OC', '=', 5.92),
  ('CC(C)[C@H](CO)Nc1nc(Nc2cccc(Cl)c2)c2ncn(C(C)C)c2n1', '=', 5.34),
  ('CCN(CC)CCNC(=O)c1c(C)[nH]c(/C=C2\C(=O)Nc3ccc(Cl)cc32)c1C', '=', 7.96),
  ('CCCNC(=O)Nc1ccc(Oc2ncnc3cc(OC)c(OC)cc23)cc1Cl', '<', 5.00),
  ('O=C1Nc2ccc3ncsc3c2/C1=C/c1cnc[nH]1', '=', 6.44),
  ('CN(C)c1ccc(/C=C2\C(=O)Nc3ccccc32)cc1', '=', 5.83),
  ('CC(C)[C@H](CO)Nc1nc(Nc2cc(N)cc(Cl)c2)c2ncn(C(C)C)c2n1', '=', 5.69),
  ('CCOc1cc2ncnc(Nc3cccc(Br)c3)c2cc1OCC', '=', 5.52),
  ('O=C1Nc2ccc(Br)cc2/C1=C/c1cc2c([nH]1)CCCC2', '=', 7.44),
  ('CC(C)n1cnc2c(Nc3cccc(Cl)c3)nc(NCCO)nc21', '=', 5.41),
  ('O=C1Nc2ccccc2/C1=C1/Nc2ccccc2/C1=N\O', '=', 5.75),
  ('COc1cc2ncnc(Nc3ccc(OCc4ccccc4)cc3)c2cc1OC', '<', 5.00),
  ('CCOC(=O)c1c(C)[nH]c(/C=C2\C(=O)Nc3ccccc32)c1C', '=', 7.61),
  ('O=C1Nc2ccccc2/C1=C\c1c(Cl)[nH]c2ccccc12', '<', 5.00),
  ('CCn1cnc2c(Nc3cccc(Cl)c3)nc(N[C@H]3CCCC[C@H]3N)nc21 [Cdk1 inhibitor. CGP74514A]', '=', 5.46),
  ('CN(C)S(=O)(=O)c1ccc2c(c1)/C(=C/c1cc3c([nH]1)CCCC3)C(=O)N2', '=', 8.00),
  ('CC(=O)O/N=C1/C(=C2/C(=O)Nc3cc(Br)ccc32)Nc2ccccc21', '<', 5.00),
  ('COc1cc2ncnc(Nc3ccc(Oc4ccccc4)cc3)c2cc1OC', '=', 6.03),
  ('CCC(=O)Nc1ccc2ncnc(Nc3cccc(Br)c3)c2c1', '=', 5.05);

Where do these numbers come from? They come from paper PMC4042160.
